Reference for the values: patent US20200399712A1

Provide the recorded Threshold of tumor cell numbers for HPV-16 detection for the entries that follow.
- System: HPV-16
- measurementDescription: qPCR sensitivity against HPV-HNSCC tumor samples diluted among 10 ng normal human DNA
- conditionSummary: Sample # 28
Numbers only, in tumor cells.

Use these answered entries as a reference point.
# molecule, unitAbbrev, numericValue
measured = [
    ("HR E5L2-4: primer/probe set for junction between E5 and L2, SEQ ID NO: 55-57 (same as SEQ ID NO: 4-6) (nucleic acid, chemistry not given here) DNA 1: GCAAAACGCACAAAACGTGC DNA 2: GACATGTACCTGCCTGTTTGC DNA 3: CGGCTACCCAACTTTATAAAACA", "tumor cells", 1.0),
    ("BR E1-4: HPV-16 E1 region primer/probe set, SEQ ID NO: 37-39 (nucleic acid, chemistry not given here) DNA 1: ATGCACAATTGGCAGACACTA DNA 2: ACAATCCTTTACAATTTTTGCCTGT DNA 3: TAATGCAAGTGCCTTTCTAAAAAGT", "tumor cells", 1.0),
]

With those in mind, consider the next molecule.
Challenge: # lookup: Threshold of tumor cell numbers for HPV-16 detection of E6: previously designed (historical) HPV-16 E6 primers and Taqman probe, SEQ ID NO: 7-9, positive control (nucleic acid, Taqman probe, labels not given here) DNA 1: TCAGGACCCACAGGAGCG DNA 2: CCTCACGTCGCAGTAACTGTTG DNA 3: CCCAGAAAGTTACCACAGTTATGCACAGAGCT
Response given: 3.0
